Provenance of the data: patent US10597388B2

Tested on: bromegrass, downy (downy bromegrass, Bromus tectorum)
METHOD NOTES: Test D controlled growth environment herbicide test, pre- and postemergence
Assay type: in vivo
MEASUREMENT PARAMETERS: Preemergence, 250 g ai/ha; scale 0 to 100 (0 no effect, 100 complete control)
PROPERTY MEASURED: Plant response rating, Bromegrass, Downy
Returns: the value as a bare number; no unit string appended.

CC(=O)Oc1c(C)nn(C)c(=O)c1-c1c(C)cc(C)c2ccccc12 [Compound 153] | 95
CCC(=O)Oc1c(C)nn(C)c(=O)c1-c1c(C)sc2ccc(Cl)cc12 [Compound 109] | 65
CCC(=O)Oc1c(C)nn(C)c(=O)c1-c1c(C)sc2c(C)cc(C)cc12 [Compound 28] | 85

Tell me Plant response rating, Bromegrass, Downy reported for CC(=O)Oc1c(Br)nn(C)c(=O)c1-c1c(C)ccc2ccccc12 [Compound 129]
80

Tell me Plant response rating, Bromegrass, Downy reported for CC(=O)Oc1c(C)nn(C)c(=O)c1-c1ccc(F)c2ccccc12 [Compound 90]
95

Tell me Plant response rating, Bromegrass, Downy reported for CCOC(=O)Oc1c(C)nn(C)c(=O)c1-c1c(C)sc2c(C)cc(C)cc12 [Compound 83]
40

Tell me Plant response rating, Bromegrass, Downy reported for Cc1ccc2ccccc2c1-c1c(O)c(C)nn(C)c1=O [Compound 59]
95
